system: FMOC25_1 (patient-derived low-grade serous ovarian cancer cells); test: drug sensitivity score (DSS3, normalised partial AUC of % inhibition dose-response) (DSS (score)); higher = more sensitive (stronger inhibition of viability); extreme values may be limits of the assay; conditions: 72 h; library: FO4B; assay format: 2D, 384-well, CellTiter-Glo
Quantity Measured: drug sensitivity score
Please respond with just the number, no unit label.

Hey, FMOC25_1 data for Oc1ncnc2[nH]ncc12 : drug sensitivity score came out at 1.3

Hey, FMOC25_1 data for COc1cc(O)c2c(c1)/C=C/C[C@H](O)[C@H](O)C(=O)/C=C\C[C@H](C)OC2=O : drug sensitivity score came out at 0

Hey, FMOC25_1 data for CC[C@H](CC#N)OC(=O)N[C@@H](C)c1cccc(NC(=O)Nc2ccc(-c3cnco3)c(OC)c2)c1 : drug sensitivity score came out at 9.7

Hey, FMOC25_1 data for Nc1nc(Nc2ccc3c(c2)CC[C@@H](N2CCCC2)CC3)nn1-c1cc2c(nn1)-c1ccccc1CCC2 : drug sensitivity score came out at 5.1

Hey, FMOC25_1 data for CC/C(=C(\c1ccccc1)c1ccc(OCCN(C)C)cc1)c1ccccc1 : drug sensitivity score came out at 2.3

Hey, FMOC25_1 data for O=C(c1ccc(C(=O)N2CCC(N3CCCC3)CC2)c(Nc2ccccc2)c1)N1CCC(N2CCCC2)CC1 : drug sensitivity score came out at 0

Hey, FMOC25_1 data for COc1cc2c(Nc3ccc(Cl)c(Cl)c3F)ncnc2cc1OC[C@@H]1C[C@@H]2CN(C)C[C@@H]2C1 : drug sensitivity score came out at 9.1

Hey, FMOC25_1 data for CS(=O)(=O)c1ccc(C2=C(c3ccccc3)C(=O)OC2)cc1 : drug sensitivity score came out at 0
